# Tested on: VchCAST RNA-guided transposition machinery (E. coli BL21(DE3) host, lacZ target)
# experiment.notes: relative integration efficiency (T-LR orientation) vs wild-type transposon end (log2 (normalized fold change)); transposon end mutated: right end (5 bp flank + 75 bp right end); higher = more efficient transposition
test.readout: relative integration efficiency (log2)

Q: Record ACATTTGTTGATACAACCATAAAATGATAATTACACCCATAAATTGATACGGCGACACAAACGCCCGGTCGCGGTAAGAGGATCATAGTCAGACCAACATTGCTACGACCCGTATTCGCACCGACAC : what is its relative integration efficiency (log2) with VchCAST RNA-guided transposition machinery (E. coli BL21(DE3) host, lacZ target)?
Result: 2.25

Q: Record ACATTTGTTGATACAACCATAAAATGATAATTAATAATTATTTATAATCAGCAACTTAACCACACCCATAAATTGATAATTATCACACCCATAAATTGATATTGCCTCTGATCATAGTCAGACCAAC : what is its relative integration efficiency (log2) with VchCAST RNA-guided transposition machinery (E. coli BL21(DE3) host, lacZ target)?
Result: -0.704

Q: Record ACATTTGTTGATACAACCATAAAATGAGCCGGCACAAACGCCCGGTCGCCGGCGACACAAACGCCCGGTCGCGGTAAGAGGATCATAGTCAGACCAACATTGCTACGACCCGTATTCGCACCGACAC : what is its relative integration efficiency (log2) with VchCAST RNA-guided transposition machinery (E. coli BL21(DE3) host, lacZ target)?
Result: -0.24
